// reported SPR Response Units for each item listed
ASSAY TARGET: GST-human KRas166 (G12V) GPPNHP (Homo sapiens, UniProt P01116, G12V)
Construct: made in house; host or cells: E. coli C41(DE3)
ASSAY COMMENT: KRas small-molecule screening by SPR (Biacore T200)
Type: binding
EXPERIMENTAL CONTEXT: compound 100 uM, 5% DMSO buffer; immobilised GST-KRas166 (G12V) GPPNHP
Write the answer as a number in Response Units, unit excluded.

                                   molecule  experimental_result
0  CN(C)Cc1cccc(Nc2ccc(-c3cccc4c3OCCO4)nc2)c1                   79
1  COc1cccc(-c2cccc3c2OC(CNC(=O)C2CCOCC2)CO3)n1 (stereo not shown)                   12
2  CN1CCC(CC(=O)Nc2ccc(-c3cccc4c3O[C@H](CNC(=O)C3CCOCC3)CO4)nc2)CC1                    7

Continue with the next molecule.
For the molecule COc1nc(-c2cccc3c2O[C@H](CNC(=O)C2CCOCC2)CO3)ccc1Nc1cccc(CN(C)C)c1 , the measured SPR Response Units on GST-human KRas166 (G12V) GPPNHP (Homo sapiens, UniProt P01116, G12V) was 90
